Values from ChEMBL document CHEMBL1817592

assay: Half life in Sprague-Dawley rat at 1 mg/kg, iv; type: ADME, organism-based; design: dose 1 mg/kg, route intravenous; conditions: in vivo
Observation Type: half-life (h)
The response must be a number in h with no trailing unit.

INSERT INTO results (line_notation, observation_type, readout_number) VALUES
  ('COc1cc(-c2cn(Cc3ccc(-c4nc5ccccc5o4)cc3)nn2)ccc1-n1cnc(C)c1', 'half-life', 5.4);

Please turn your attention to the following entry.
Ask: Supply half-life value. Item: COc1cc(-c2cn(Cc3ccc(C(C)(C)C)cc3)nn2)ccc1-n1cnc(C)c1
Result: 7.7

---

We begin with a simple list: items and their reported bioavailability.
test: Oral bioavailability in Sprague-Dawley rat at 2 mg/kg; type: ADME, organism-based; settings: in vivo
Record the value in %, omitting the unit from your answer.

INSERT INTO measurements (line_notation, observation_type, readout_number) VALUES
  ('COc1cc(-c2cn(Cc3ccc(-c4nc5ccccc5o4)cc3)nn2)ccc1-n1cnc(C)c1', 'bioavailability', 49);

Next:
Ask: Read off the recorded bioavailability for COc1cc(-c2cn(Cc3ccc(C(C)(C)C)cc3)nn2)ccc1-n1cnc(C)c1
Result: 41

---

experiment: Drug level in Sprague-Dawley rat brain at 100 mg/kg, po after 6 hrs; type: ADME, organism-based; set-up: dose 100 mg/kg, route oral; conditions: read-out: Drug uptake
Observation Type: concentration at 6 h (µM)
Provide the reading as a plain figure in µM.

Ask: Kindly indicate its recorded concentration at 6 h. Item: COc1cc(-c2cn(Cc3ccc(C(C)(C)C)cc3)nn2)ccc1-n1cnc(C)c1
Result: 56

---

test: Plasma concentration in Sprague-Dawley rat at 60 mg/kg, po after 6 hrs; format: ADME, organism-based; design: dose 60 mg/kg, route oral
Observation Type: concentration at 6 h

Ask: Output measured concentration at 6 h for this item: COc1cc(-c2cn(Cc3ccc(-c4nc5ccccc5o4)cc3)nn2)ccc1-n1cnc(C)c1
Result: 40 µM
